- Target of assay: T1, TRAF2, Q12933
- T1 chain: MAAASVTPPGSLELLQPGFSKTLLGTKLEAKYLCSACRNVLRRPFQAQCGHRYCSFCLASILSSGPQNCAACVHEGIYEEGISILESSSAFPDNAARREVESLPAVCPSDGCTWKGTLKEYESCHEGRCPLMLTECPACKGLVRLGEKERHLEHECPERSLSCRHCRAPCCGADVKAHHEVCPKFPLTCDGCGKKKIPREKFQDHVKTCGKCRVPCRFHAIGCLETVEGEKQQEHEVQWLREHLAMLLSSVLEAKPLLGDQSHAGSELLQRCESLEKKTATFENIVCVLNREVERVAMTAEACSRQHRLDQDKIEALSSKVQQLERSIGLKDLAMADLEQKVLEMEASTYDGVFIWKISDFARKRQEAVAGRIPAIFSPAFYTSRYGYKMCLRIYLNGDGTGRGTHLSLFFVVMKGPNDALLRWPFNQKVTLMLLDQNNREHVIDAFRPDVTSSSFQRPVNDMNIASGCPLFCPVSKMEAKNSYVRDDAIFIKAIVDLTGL
- Method: median log2 fold change of GCK-ALFA target abundance (FLAG IP / Myc IP barcode read proportion) (log2 ratio); each designed protein is fused to an ALFA-tag nanobody in HEK293 cells to bring the named protein to FLAG-tagged glucokinase (GCK); Myc marks an untargeted standard; higher = target protein stabilised (more abundant)
- Condition description: target protein: 3xFLAG-MCP-GCK-ALFA reporter; HEK293 landing pad (RPLP)
The full ranking holds about 1,800 sequences; the median of “median log2 fold change of GCK-ALFA target abundance (FLAG IP / Myc IP barcode read proportion)” is about 0.14, and the lowest 2% start at about -0.84. The full list was thinned out, with the lowest values kept by preference.
median log2 fold change values, listed per item
Measured quantity: median log2 fold change

# Binder, Measured quantity, Endpoint result
records = [
    ("traf2_out_16_104_1406 (protein) AAATQAAFDAIIAELNKIAEELGKIANKIYKKMETASPELKEKLTDALVDASELRRQALEAAVAAAQARATGGDLAAAQATLAELKKKAEEVKKKAEELF", "median log2 fold change", 0.196),
    ("traf2_out_20_38_2023 (protein) SMEEEEEEKLKELVEVANKAYDEYSAKFAKWKAEGKTVEEIAEEVKKEIRELLSKAGLEEEAEILIEDVDLALKSPNAERLLIRTLARAVALVKQKELQK", "median log2 fold change", -1.38),
    ("traf2_out_17_178_1705 (protein) SKEEARKKISEATDKMIDLAQEAAERLLEIAEREGSLSPEELAELRRARRLGSARTTLALMRRAIPRSRSAEEVRRLVEEFEKEYRELSKIIAEELKKYE", "median log2 fold change", -0.521),
    ("traf2_out_20_38_2012 (protein) SEEEKEKEKEEKLIEHANEAYDRAEAWVAALQAAGKSVAEIAAEAKKRIRELLTAHGLEEEAEELIEDVDRVLDSPDAERLIVQILARAETLVFQKELQK", "median log2 fold change", 0.283),
]
